# credit: patent US9732087B2

- measured.target: human H4 receptor (Homo sapiens (Human), UniProt Q9H3N8)
- Sequence (Q9H3N8 whole entry): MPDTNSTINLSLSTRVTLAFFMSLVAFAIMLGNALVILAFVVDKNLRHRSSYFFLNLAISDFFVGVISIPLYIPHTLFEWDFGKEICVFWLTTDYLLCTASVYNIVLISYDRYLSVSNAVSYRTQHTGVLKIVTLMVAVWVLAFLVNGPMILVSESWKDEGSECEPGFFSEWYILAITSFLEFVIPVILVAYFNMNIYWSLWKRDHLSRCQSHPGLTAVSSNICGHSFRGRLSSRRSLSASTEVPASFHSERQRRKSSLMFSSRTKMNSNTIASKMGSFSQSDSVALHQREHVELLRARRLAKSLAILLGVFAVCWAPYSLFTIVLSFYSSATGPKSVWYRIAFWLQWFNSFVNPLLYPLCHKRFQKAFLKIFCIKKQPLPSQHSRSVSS
- measurement.description: Binding assay on recombinant human histamine H4 receptor ([3H]histamine competition, SK-N-MC cell membranes)
- test.parameters: membranes harvested with cell harvester; [3H]histamine 10 nM; average of results; read-out: Cell Harvester Ki
pKi: −log10 of the molar value. Where a name gives a salt, the structure may show the parent alone.
Okay, here is how we bin by pKi: I = under 6, II = from 6 up to 7, III = 7 and over

# compound, assigned.class
data = [
    ("CCCCNc1cc(N2C[C@H]3CCN[C@H]3C2)cnn1 [Example 310]", "II"),
    ("CN[C@H]1CCN(c2ccnc(NC3CC3)c2)C1 [Example 235]", "II"),
    ("N[C@@H]1CCN(c2ccnc(NC3CCCCC3)c2)C1 [Example 274]", "III"),
    ("CC(C)CNc1nccc(N2C[C@H]3CCN[C@H]3C2)n1 [Example 138]", "III"),
    ("CN[C@@H]1CCN(c2ccnc(N[C@H]3C[C@H]4C[C@@H]([C@@H]3C)C4(C)C)c2)C1 [Example 9]", "III"),
    ("N[C@H]1CCN(c2ccnc(NC3CC4CCC3C4)n2)C1 (stereo partly shown) [Example 146]", "III"),
    ("CN[C@@H]1CCN(c2ccnc(N[C@@H]3CCOC3)c2)C1 [Example 5, dihydrochloride]", "III"),
    ("c1cc(N2C[C@H]3CCN[C@H]3C2)cc(NC2CCCC2)n1 [Example 262]", "III"),
    ("COCCNc1nccc(N2CC[C@@H](N)C2)n1 [Example 59]", "II"),
    ("CN[C@@H]1CCN(c2ccnc(NCCCO)n2)C1 [Example 167]", "III"),
    ("N[C@H]1CCN(c2ccnc(NCC3CCCC3)n2)C1 [Example 149]", "III"),
    ("CN[C@H]1CCN(c2cnnc(NCC3CCCCC3)c2)C1 [Example 396]", "II"),
    ("CN[C@@H]1CCN(c2ccnc(NCC(C)(C)O)n2)C1 [Example 114]", "III"),
    ("CN[C@@H]1CCN(c2cnnc(NCc3ccc(C)cc3)c2)C1 [Example 384]", "I"),
    ("c1cc(N2CCCNCC2)nc(NC2CC3CCC2C3)n1 (stereo not shown) [Example 195]", "III"),
    ("c1ccc(CCNc2cc(N3CCNCC3)cnn2)cc1 [Example 362]", "I"),
    ("C[C@@H](Nc1cc(N2CCNCC2)cnn1)c1ccccc1 [Example 349]", "I"),
    ("CN1CCN(c2ccnc(NCc3ccccn3)c2)CC1 [Example 244]", "I"),
    ("C[C@@H](Nc1cc(N2C[C@H]3CCN[C@H]3C2)ccn1)C1CCCCC1 [Example 271]", "II"),
    ("CN[C@@H]1CCN(c2cnnc(NC3CCCC3)c2)C1 [Example 412]", "III"),
    ("CN[C@@H]1CCN(c2ccnc(NCC3CCCCC3)c2)C1 [Example 211]", "III"),
    ("c1cc(N2C[C@H]3CCN[C@H]3C2)nc(NC2CC2)n1 [Example 143]", "II"),
    ("N[C@@H]1CCN(c2cnnc(NCc3ccccc3)c2)C1 [Example 340]", "I"),
    ("C[C@@H](Nc1nccc(N2CC[C@@H](N)C2)n1)C1CCCCC1 [Example 103]", "II"),
]
